Value source: patent US5332427A

Test system: Tyromyces palustris
Assay Info: Mycelium growth inhibition on potato dextrose agar medium, Tyromyces palustris (Test Example 2)
Format: cell-based
Cond: 2 ppm, four days after inoculation
Assay Endpoint: Percentage of growth inhibition for Tyromyces palustris (Percentage)
Please reply with the bare figure in Percentage and do not write the unit itself.

Answered cases to consult:
# Compound, Quantitative Result
measured = [
    ("CC(C)(C)C(O)/C(=C\\c1ccc(Cl)cc1Cl)n1cncn1 (single isomer, unassigned; (-))", 93.0),
    ("CCOC(=O)OCC(I)=C(Br)I", 43.0),
    ("Clc1ccc(OCOCC#CI)cc1", 98.6),
]

Proceed to the following item.
Noted Percentage of growth inhibition for Tyromyces palustris for CC(C)(C)C(O)/C(=C\c1ccc(Cl)cc1)n1cncn1 (single isomer, unassigned; (-)) , tested on Tyromyces palustris: 98.8

###

Recorded measurements of Percentage of growth inhibition for Coriolus versicolor, one per entry
System: Coriolus versicolor
Assay Info: Mycelium growth inhibition on potato dextrose agar medium, Coriolus versicolor (Test Example 2)
Format: cell-based
Cond: 4 ppm, four days after inoculation
Method: Each of the test compounds shown in Tables 3 and 4 was dissolved in a definite amount of dimethylsulfoxide to prepare a 1% W/V solution. […] Four days after the inoculation, the diameter of colony extended from the inoculation point was measured and the percentage of mycelium growth inhibition was calculated according to the following equation: [formula]
Reply with the number and its unit after it.

Below are worked cases with known answers.
# Molecule, Result
data = [
    ("CC(C)(C)C(O)/C(=C\\c1ccc(Cl)cc1)n1cncn1 (single isomer, unassigned; (-)) [Compound (2)]", "93.9 Percentage"),
    ("CCOC(=O)OCC(I)=C(Br)I [Compound (A)]", "72.8 Percentage"),
    ("Clc1ccc(OCOCC#CI)cc1 [Compound (C), 4-Chlorophenyl-3-iodopropargyl formal]", "97.9 Percentage"),
]

Now look at this one.
Sure, the documented Percentage of growth inhibition for Coriolus versicolor for CC(C)(C)C(O)/C(=C\c1ccc(Cl)cc1Cl)n1cncn1 (single isomer, unassigned; (-)) [Compound (1)] is 98.3 Percentage
